# Test system: Septoria tritici (St)
# assay-notes: Growth inhibition assay of fungal pathogens, St
# Format: cell-based
# protocol-conditions: Zymoseptoria tritici, 48 h, Septoria tritici; growth inhibition at 48 hours vs 2% DMSO control; read-out: Concentration at 90% Inhibition St
Known IC90 of a selection of molecules

Before answering, review these 5 worked examples.
Provide only the value of recorded IC90 for COc1ccc(F)cc1[C@H](Cn1c(=O)n(C(C)(C)C(N)=O)c(=O)c2c(C)c(-n3nccn3)sc21)OC1CCOCC1
> 50 µg/mL

Supply reported IC90 belonging to this molecule: C=CCN(C)C(=O)C(C)(C)n1c(=O)c2c(C)c(-n3nccn3)sc2n(C[C@H](OC2CCOCC2)c2cc(F)ccc2OC)c1=O
> 50 µg/mL

# return recorded IC90 for entry COc1ccc(F)cc1[C@@H](O)Cn1c(=O)n([C@@H](C)C(=O)N(C)C(C)C)c(=O)c2c(C)c(-n3nccn3)sc21
> 50 µg/mL

Specify reported IC90 for the molecule shown: COc1ccccc1[C@@H](O)Cn1c(=O)n(C(C)(C)C(=O)N2CCCC2)c(=O)c2c(C)c(-n3nccn3)sc21
> 50 µg/mL

Retrieve IC90 measured for COc1ccc(F)cc1[C@H](Cn1c(=O)n([C@@H](C)C(=O)NC(C)C)c(=O)c2c(C)c(-n3nccn3)sc21)OCC(C)(C)C#N and print it.
> 50 µg/mL

New cases:
State its IC90 for this molecule: COc1ccc(F)cc1[C@@](C)(Cn1c(=O)n(C(C)(C)C(=O)NC(C)C)c(=O)c2c(C)c(-n3nccn3)sc21)OCCC#N
> 50 µg/mL

Indicate its recorded IC90; the molecule in question is COc1ccc(F)cc1[C@@H](O)Cn1c(=O)n([C@@H](C)C(=O)N2CC=CC2)c(=O)c2c(C)c(-n3nccn3)sc21
> 50 µg/mL

Specify reported IC90 for the molecule shown: CCNC(=O)C(C)(C)n1c(=O)c2c(C)c(-n3nccn3)sc2n(C[C@H](OC(C)=O)c2cc(F)ccc2OC)c1=O
> 50 µg/mL

Give me measured IC90, please, for this molecule: CNC(=O)C(C)(C)n1c(=O)c2c(C)c(-n3nccn3)sc2n(C[C@H](OCCC#N)c2cc(F)ccc2OC)c1=O
> 50 µg/mL

Tell me measured IC90 for COCCO[C@@H](Cn1c(=O)n(C(C)C(=O)N2CCCC2)c(=O)c2c(C)c(-n3nccn3)sc21)c1cc(F)ccc1OC (stereo partly shown) please.
> 50 µg/mL

Please list IC90 recorded for the molecule COc1ccc(F)cc1[C@H](Cn1c(=O)n(C(C)(C)C(=O)NCC(C)C)c(=O)c2c(C)c(-n3nccn3)sc21)OC1CCOCC1
10 µg/mL

Given COc1ccc(F)cc1[C@H](Cn1c(=O)n(C(C)(C)C(=O)NC(C)C)c(=O)c2c(C)c(-n3nccn3)sc21)OC(C)=O , respond with its IC90.
> 50 µg/mL

Specify reported IC90 for the molecule shown: CCNC(=O)C(C)(C)n1c(=O)c2c(C)c(-n3nccn3)sc2n(C[C@H](OC2CCOCC2)c2ccccc2OC)c1=O
> 50 µg/mL
